Taken from patent US4261892A.

Test system: Adjuvant Arthritis In Rats
Assay: Adjuvant-induced arthritis in rats (chronic inflammation accompanied by joint destruction)
Assay type: in vivo, Royal Hart, Wistar strain rats
Settings: oral 50 mg./kg. once daily days 0-13; at 21 days
Assay Readout: Dead/Treated at 21 Days

Dead/Treated at 21 Days reported for this compound CC(C)(C)Nc1nc(NC(C)(C)C)nc(N2CC3CCC(CC3)C2)n1 : 1/9

Dead/Treated at 21 Days reported for this compound CC(C)(C)C(C)(C)Nc1nc(N[C@H]2C[C@@H]3CC[C@H]2C3)nc(NC(C)(C)C(C)(C)C)n1 (relative stereo) : 0/3

Dead/Treated at 21 Days reported for this compound CC(C)(C)CC(C)(C)Nc1nc(NC(C)(C)C)nc(N2CC3CCC(CC3)C2)n1 : 3/18

Dead/Treated at 21 Days reported for this compound CC(C)(C)CC(C)(C)Nc1nc(NC(C)(C)C(C)(C)C)nc(N2CC3CCC(CC3)C2)n1 : 0/12

Dead/Treated at 21 Days reported for this compound CC(C)(C)CC(C)(C)Nc1nc(Nc2ccc(F)cc2)nc(N2CC3CCC(CC3)C2)n1 : 1/18

Then this compound:
Dead/Treated at 21 Days reported for this compound CC(C)(C)C(C)(C)Nc1nc(NC(C)(C)C(C)(C)C)nc(N2CC3CCC(CC3)C2)n1 : 0/36

---

Mean Weight Gain (grams) Day 21 by entry:
Tested on: Adjuvant Arthritis In Rats
Test: Adjuvant-induced arthritis in rats (chronic inflammation accompanied by joint destruction)
Format: in vivo, Royal Hart, Wistar strain rats
Conditions: oral 50 mg./kg. once daily days 0-13; Day 21
Description: Groups of three Royal Hart, Wistar strain rats weighing 200±10 grams each were injected intradermally in the right hind paw with Freund's adjuvant (dried human tubercle bacilli in a mineral oil vehicle) at a dose of 2 mg./kg. of body weight. […] On the 14th and 21st day post challenge the diameter of the injected paw (primary lesion) was measured by micrometer caliper. […]
A number alone suffices; assume grams.

Illustrative cases are given below, each with its answer.
Mean Weight Gain (grams) Day 21 reported for this compound CC(C)(C)CC(C)(C)Nc1nc(Nc2ccc(F)cc2)nc(N2CC3CCC(CC3)C2)n1 : 50

Mean Weight Gain (grams) Day 21 reported for this compound CC(C)(C)CC(C)(C)Nc1nc(NC(C)(C)CC(C)(C)C)nc(N2CC3CCC(CC3)C2)n1 : 67

Next:
Mean Weight Gain (grams) Day 21 reported for this compound CC(=O)Oc1ccccc1C(=O)O : 44

Mean Weight Gain (grams) Day 21 reported for this compound CC(C)(C)C(C)(C)Nc1nc(NC23CC4CC(CC(C4)C2)C3)nc(NC(C)(C)C(C)(C)C)n1 : 89

Mean Weight Gain (grams) Day 21 reported for this compound CC(C)(C)C(C)(C)Nc1nc(N[C@H]2C[C@@H]3CC[C@H]2C3)nc(NC(C)(C)C(C)(C)C)n1 (relative stereo) : 93
